Target: PI3K α (Homo sapiens)
Construct: Full length p110 subunits of PI3K α, β and δ, N-terminally labeled with polyHis tag; polyHis (N)
Sequence (P42336 whole entry, species assumed): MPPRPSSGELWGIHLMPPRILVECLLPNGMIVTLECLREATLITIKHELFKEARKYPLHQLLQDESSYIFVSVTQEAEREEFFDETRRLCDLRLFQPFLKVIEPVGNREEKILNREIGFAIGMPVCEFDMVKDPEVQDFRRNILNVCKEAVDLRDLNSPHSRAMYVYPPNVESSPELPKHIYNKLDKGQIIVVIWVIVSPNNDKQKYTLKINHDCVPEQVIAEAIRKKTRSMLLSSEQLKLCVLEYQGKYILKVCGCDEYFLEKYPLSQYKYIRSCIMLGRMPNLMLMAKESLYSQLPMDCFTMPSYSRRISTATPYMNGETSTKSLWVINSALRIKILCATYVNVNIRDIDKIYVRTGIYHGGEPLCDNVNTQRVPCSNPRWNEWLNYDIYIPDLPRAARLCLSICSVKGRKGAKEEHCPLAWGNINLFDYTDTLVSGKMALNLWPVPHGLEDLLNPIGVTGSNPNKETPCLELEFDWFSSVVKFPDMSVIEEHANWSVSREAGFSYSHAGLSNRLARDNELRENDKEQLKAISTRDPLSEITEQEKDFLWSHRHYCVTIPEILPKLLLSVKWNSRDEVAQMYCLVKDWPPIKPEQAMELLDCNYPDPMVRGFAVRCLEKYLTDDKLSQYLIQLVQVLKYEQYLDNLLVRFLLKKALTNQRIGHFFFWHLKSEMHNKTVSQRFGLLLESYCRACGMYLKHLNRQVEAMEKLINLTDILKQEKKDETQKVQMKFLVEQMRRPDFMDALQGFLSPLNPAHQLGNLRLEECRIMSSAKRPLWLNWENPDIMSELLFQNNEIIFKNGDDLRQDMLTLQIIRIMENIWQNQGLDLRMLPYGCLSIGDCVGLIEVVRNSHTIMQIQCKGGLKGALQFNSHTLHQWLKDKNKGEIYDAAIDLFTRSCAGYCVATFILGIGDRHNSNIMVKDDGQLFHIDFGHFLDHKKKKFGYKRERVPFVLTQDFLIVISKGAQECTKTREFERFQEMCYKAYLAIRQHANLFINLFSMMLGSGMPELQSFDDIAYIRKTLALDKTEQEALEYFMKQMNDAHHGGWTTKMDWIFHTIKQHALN
Sequence (P27986 whole entry partner, species assumed): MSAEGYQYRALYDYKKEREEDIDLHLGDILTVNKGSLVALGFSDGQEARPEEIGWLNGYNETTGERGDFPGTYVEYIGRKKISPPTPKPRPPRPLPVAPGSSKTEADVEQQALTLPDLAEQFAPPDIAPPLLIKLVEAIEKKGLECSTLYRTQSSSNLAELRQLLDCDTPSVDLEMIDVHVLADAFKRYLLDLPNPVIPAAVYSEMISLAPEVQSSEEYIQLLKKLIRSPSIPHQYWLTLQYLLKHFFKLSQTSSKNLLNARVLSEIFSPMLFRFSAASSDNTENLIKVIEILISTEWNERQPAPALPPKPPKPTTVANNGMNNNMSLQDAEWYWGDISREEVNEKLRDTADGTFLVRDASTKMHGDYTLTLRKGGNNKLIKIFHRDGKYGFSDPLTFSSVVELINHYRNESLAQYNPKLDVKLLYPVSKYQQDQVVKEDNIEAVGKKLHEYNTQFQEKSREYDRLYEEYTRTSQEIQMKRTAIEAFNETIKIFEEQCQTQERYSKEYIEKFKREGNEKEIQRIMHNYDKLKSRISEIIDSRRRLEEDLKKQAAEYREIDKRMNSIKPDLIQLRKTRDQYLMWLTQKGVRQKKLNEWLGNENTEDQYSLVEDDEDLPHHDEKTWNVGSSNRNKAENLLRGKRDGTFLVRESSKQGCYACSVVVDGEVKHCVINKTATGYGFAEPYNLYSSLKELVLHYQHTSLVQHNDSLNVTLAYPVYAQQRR
Experiment: In vitro PI3 kinase enzyme assay (alpha), ATP loss, bioluminescence;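 further: purified p110α/p85 heterodimer acting on PtdIns(4,5)P2 at room temperature, remaining ATP read by luminescence, inhibition scaled between compound-free wells with and without enzyme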
Conditions: read-out: PI3Kα ATP loss IC50
Consider the following compounds and their measured pIC50 readings.
Formally, pIC50 is defined as -log10 of the concentration c, with c in mol/L.

// solved cases for pIC50 follow
>  <COMPOUND>
CC(=O)Nc1nc2ccc(-c3cnc(OCCCN(C)C)c(NC(C)C)c3)cc2s1 [Example 153]

>  <MEASUREMENT_TARGET>
PI3K α (Homo sapiens)

>  <EXPERIMENTAL_VALUE>
6.55

$$$$
>  <COMPOUND>
CC(=O)Nc1nc2ccc(-c3csc(S(=O)(=O)c4ccccc4)n3)cc2s1 [Example 64]

>  <MEASUREMENT_TARGET>
PI3K α (Homo sapiens)

>  <EXPERIMENTAL_VALUE>
6.07

$$$$
>  <COMPOUND>
CNC(=O)Nc1nc2ccc(-c3ccnc(OCc4ccccc4)n3)cc2s1 [Example 56]

>  <MEASUREMENT_TARGET>
PI3K α (Homo sapiens)

>  <EXPERIMENTAL_VALUE>
6.60

$$$$
>  <COMPOUND>
CC(=O)Nc1nc2ccc(-c3cnc(C(F)(F)F)c(O)c3)cc2s1 [Example 302]

>  <MEASUREMENT_TARGET>
PI3K α (Homo sapiens)

>  <EXPERIMENTAL_VALUE>
8.07

$$$$
>  <COMPOUND>
CC(=O)Nc1nc2ccc(-c3ccnc(Sc4ccc(C)cc4)n3)cc2s1 [Example 36]

>  <MEASUREMENT_TARGET>
PI3K α (Homo sapiens)

>  <EXPERIMENTAL_VALUE>
7.23

$$$$

Prompt line: Return pIC50 (reported value) for this compound: CNc1nc2ccc(-c3cnc(Cl)c(NS(=O)(=O)c4c(Cl)cccc4Cl)c3)cc2s1 [Example 319]
Response line: 8.04

Prompt line: Respond only with pIC50 recorded for COc1cc(Cl)ncc1-c1ccc2nc(NC(C)=O)sc2c1 [Example 246]
Response line: 6.59

Prompt line: Using the record for COc1cccc(S(=O)(=O)c2cccc(-c3ccc4nc(NC(C)=O)sc4c3)n2)c1 [Example 69] , state its measured pIC50.
Response line: 7.33
